B1: CDC25A (parent)
chain: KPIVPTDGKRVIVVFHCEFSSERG

Variants of: B1
Assay: protein stability index of a GFP-peptide fusion (GPS, HEK-293T) (PSI 1-6); higher = more stable;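 note: lentivirally expressed fusions sorted by FACS into six bins by GFP to DsRed ratio, PSI derived from sequencing read proportions per bin multiplied by bin number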
Conditions: c terminus: a fixed tail appended
Classify as follows. Reported protein stability index greater than or equal to 3: condition met. Reported protein stability index below: condition not met.

Please review the entries below; each comes with its answer.
variant_descriptor	group
E22M	condition not met
F19P	condition not met
K9V	condition not met

Lookup: protein stability index >= 3 for C17K ?
Found: condition not met

Lookup: What do you get for T6I ?
Found: condition not met

Lookup: What do you get for K9D ?
Found: condition not met

Lookup: What do you get for G24Q ?
Found: condition met

Lookup: What do you get for P2Q ?
Found: condition not met

Lookup: What do you get for V11S ?
Found: condition not met

Lookup: What do you get for P5K ?
Found: condition not met

Lookup: What do you get for P2N ?
Found: condition met
